assay: Plasma pharmacokinetics of raltitrexed (radioimmunoassay); format: in vivo; conditions: human, intravenous, dose level V (irinotecan 350, raltitrexed 2.6 mg m-2), cycle 1, n=3, read-out: Raltitrexed Cl (converted)
assay-endpoint: clearance

Qu. What value of clearance has been reported for the following molecule? Cc1nc2ccc(CN(C)c3ccc(C(=O)N[C@@H](CCC(=O)O)C(=O)O)s3)cc2c(=O)[nH]1
Ans. 41.7 mL/min

---

experiment: Plasma pharmacokinetics of irinotecan and SN-38 (reversed-phase HPLC); details: human, plasma, intravenous, Irinotecan AUC, dose level III (irinotecan 250, raltitrexed 2.6 mg m-2); cycle 1; n=3
Structures can show the parent of a compound that is named as a salt.
assay-endpoint: AUC (ng·h/mL)
# unit: ng·h/mL | format: bare number

Qu. What value of AUC has been reported for the following molecule? CCc1c2c(nc3ccc(OC(=O)N4CCC(N5CCCCC5)CC4)cc13)-c1cc3c(c(=O)n1C2)COC(=O)[C@]3(O)CC [irinotecan, Irinotecan hydrochloride]
Ans. 14600

---

test: Plasma pharmacokinetics of raltitrexed (radioimmunoassay); type: in vivo; conditions: human, intravenous, dose level IV (irinotecan 300, raltitrexed 2.6 mg m-2), cycle 1, n=3
assay-endpoint: Cmax (ng/mL)
# unit: ng/mL | format: bare number

Qu. What value of Cmax has been reported for the following molecule? Cc1nc2ccc(CN(C)c3ccc(C(=O)N[C@@H](CCC(=O)O)C(=O)O)s3)cc2c(=O)[nH]1 [raltitrexed]
Ans. 676

---

test: Plasma pharmacokinetics of raltitrexed (radioimmunoassay); assay type: in vivo; conditions: human, intravenous, dose level IV (irinotecan 300, raltitrexed 2.6 mg m-2), cycle 1, n=3, read-out: Raltitrexed Cl (converted)
assay-endpoint: clearance (mL/min)
# unit: mL/min | format: bare number

Qu. What value of clearance has been reported for the following compound? Cc1nc2ccc(CN(C)c3ccc(C(=O)N[C@@H](CCC(=O)O)C(=O)O)s3)cc2c(=O)[nH]1
Ans. 47.2

---

assay: Plasma pharmacokinetics of raltitrexed (radioimmunoassay); assay type: in vivo; conditions: human, intravenous, dose level III (irinotecan 250, raltitrexed 2.6 mg m-2), cycle 1, n=3, read-out: Raltitrexed Cl (converted)
assay-endpoint: clearance (mL/min)
# unit: mL/min | format: bare number

Qu. What value of clearance has been reported for the following compound? Cc1nc2ccc(CN(C)c3ccc(C(=O)N[C@@H](CCC(=O)O)C(=O)O)s3)cc2c(=O)[nH]1
Ans. 56

---

assay: Plasma pharmacokinetics of raltitrexed (radioimmunoassay); format: in vivo; details: human, intravenous, dose level IV (irinotecan 300, raltitrexed 2.6 mg m-2), cycle 1, n=3, read-out: Raltitrexed t1/2 terminal (converted)
assay-endpoint: half-life (days)
# unit: days | format: bare number

Qu. What value of half-life has been reported for the following molecule? Cc1nc2ccc(CN(C)c3ccc(C(=O)N[C@@H](CCC(=O)O)C(=O)O)s3)cc2c(=O)[nH]1 [raltitrexed]
Ans. 14.5

---

test: Plasma pharmacokinetics of raltitrexed (radioimmunoassay); format: in vivo; conditions: human, intravenous, dose level VI (irinotecan 350, raltitrexed 3.0 mg m-2), cycle 1, n=6, read-out: Raltitrexed Vss
assay-endpoint: Vd (L)
# unit: L | format: bare number

Qu. What value of Vd has been reported for the following molecule? Cc1nc2ccc(CN(C)c3ccc(C(=O)N[C@@H](CCC(=O)O)C(=O)O)s3)cc2c(=O)[nH]1 [raltitrexed]
Ans. 25.8

Source of measurements: paper PMC2363476
